Each recorded value in this set is attributed to ChEMBL document CHEMBL2086286.

# EXPERIMENTAL DETAILS: Antioxidant activity assessed as ABTS free radical scavenging activity at 1 mg/mL by spectroscopic analysis
# Assay type: functional
inhibition listing for selected molecules.
State the answer as a number, implicitly in %.

The reported inhibition of the molecule "Cc1[nH]nc(NN=C2C(=O)CCCC2=O)c1/N=N/c1c(C)n(C)n(-c2ccccc2)c1=O" was 40

inhibition in this record for "Cc1nn2c3c(nnc2c1/N=N/c1c(C)n(C)n(-c2ccccc2)c1=O)C(=O)CCC3" : 52.5

According to the records, this molecule "Cc1[nH]nc(N)c1/N=N/c1c(C)n(C)n(-c2ccccc2)c1=O" displays inhibition of 28.4

Recorded result, "Cc1nn2c(N)c(C#N)nnc2c1/N=N/c1c(C)n(C)n(-c2ccccc2)c1=O" , inhibition: 15.9

So for "CC(=N)/C(C#N)=N\Nc1n[nH]c(C)c1/N=N/c1c(C)n(C)n(-c2ccccc2)c1=O" , the logged inhibition turned out to be 28.6
